- Tested system: T1, HER2 on the surface of N87 cells (human, UniProt P04626)
- T1 construct: full-length receptor on the cell surface
- Method summary: flow cytometry on N87 cells; scFv detected with AL2-RFP (1:1 scFv:AL fragment); MFI adjusted over cells with AL2-RFP without scFv
Readout label: binding result

GH2-41 scFv (scFv) scFv: DIQMTQSPSSLSASVGDRVTITCRASQDVSNSVAWYQQKPGKAPKLLISGAAWLYSGVPSRFSGSGSGTDFTLTISSLQPEDFATYYCQQSGNFPLTFGQGTKVEIKRGGSSRSSSSGGGGSGGGGEVQLVESGGGLVQPGGSLRLSCAASGFTISNWGIHWVRQAPGKGLEWVASIGPSGGFTSYADSVKGRFTISADTSKNTAYLQMNSLRAEDTAVYYCARFYIYGGVIMDYWGQGTLVTVSSASAAA; binds
H32 scFv (scFv, also called scFv(H32)) scFv: DIQMTQSPSSLSASVGDRVTITCKASQNVGTAVAWYQQKPGKAPKLLIYSASNRYTGVPSRFSGSGSGTDFTLTISSLQPEDFATYYCQQYSSYPLAFGQGTKVEIKRGGGGSIEGRSGGGGSEVQLVESGGGLVQPGGSLRLSCKASGFNIKDYFMYWVRQAPGKGLEWVGWIDPENGNTIYDPKFQGRFTISADTSKNTAYLQMNSLRAEDTAVYYCTRGYYGSRVLAMDYWGQGTLVTVSSASAAA; binds
GH2-61 scFv (scFv) scFv: DIQMTQSPSSLSASVGDRVTITCRASQDVGSNVAWYQQKPGKAPKLLISWSTSLYSGVPSRFSGSGSGTDFTLTISSLQPEDFATYYCQQYGGWPITFGQGTKVEIKRGGGGSIEGRSGGGGSEVQLVESGGGLVQPGGSLRLSCAASGFTINNWGIHWVRQAPGKGLEWVAGIWPYGGYTYYADSVKGRFTISADTSKNTAYLQMNSLRAEDTAVYYCARFYNHHGGVMDYWGQGTLVTVSSASAAA; binds
